Could you please report measured protein stability index for the items listed next?
experiment: protein stability index of a GFP-peptide fusion (GPS, HEK-293T) (PSI 1-6); higher = more stable; details: treatment: MLN4924 1 uM, 8 h; c terminus: a fixed tail appended;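 note: 24-mer peptide tiles fused after GFP, lentivirally expressed, FACS-sorted into six equal bins by GFP/DsRed ratio, decoded by Illumina sequencing, PSI is the read-weighted mean bin number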
Form field (numeric): enter value without unit.

Fill blank: measured protein stability index of the sequence LPLERDAESFLLKSPIAPCSLDKR [CDC25B] is ____.
4.35

Fill blank: measured protein stability index of the sequence GLTFQGLLPLTELSVCPLEGSREH [PLEKHN1] is ____.
3.62

Fill blank: measured protein stability index of the sequence DRSTEPDRLQVFHKRAIMPYGVYK [ATE1] is ____.
3.47

Fill blank: measured protein stability index of the sequence QCFFNGVFLGNKRSLSERTVDKCF [SPATS1] is ____.
2.34

Fill blank: measured protein stability index of the sequence GHHAEKLPAGAGAPKAGLEEAPAV [TNFSF13B] is ____.
5.27

Fill blank: measured protein stability index of the sequence SVKIPVRNHGILMETHKELKPLLS [LYSMD4] is ____.
3.17

Fill blank: measured protein stability index of the sequence ISLHPFNPWNWGKLAEAYLNLGPA [C8orf76] is ____.
2.18

Fill blank: measured protein stability index of the sequence NSLITAPGEFSDASMSPDATKPSH [SMAD6] is ____.
5.23

Fill blank: measured protein stability index of the sequence SQLSVLSLSGVMLTDVSPEPLQAL [PRAME] is ____.
2.4

Fill blank: measured protein stability index of the sequence LLESSSSYKNLTLKFHKLVNVTIH [MCOLN1] is ____.
2.33

Fill blank: measured protein stability index of the sequence LSLNMDNLQDTLEAASFLQILPVL [KLHL13] is ____.
2.72

Fill blank: measured protein stability index of the sequence PTVTIEGFLQALSLAVDKQFEERK [TRIP13] is ____.
2.13

Fill blank: measured protein stability index of the sequence GPSNTSHSSSRDSHLSNGLDPVAE [C2CD2L] is ____.
5.23

* * *

Could you please report measured protein stability index for the items listed next?
experiment: protein stability index of a GFP-peptide fusion (GPS, HEK-293T) (PSI 1-6); higher = more stable; conditions: treatment: DMSO; c terminus: a fixed tail appended
Form field (numeric): enter value without unit.

Fill blank: measured protein stability index of the sequence TQKLSKIETLRLAKNYIWALSEIL [NEUROD6] is ____.
2.61

Fill blank: measured protein stability index of the sequence TLAQTISEAAIGGAMLGQTTSEEA [HDAC6] is ____.
4.66

Fill blank: measured protein stability index of the sequence TSSAKVDMTFEEEAQLLQLKVKCL [FKBP8] is ____.
3.48

Fill blank: measured protein stability index of the sequence SIERSHRIATETDQIGSEIIEELG [VTI1B] is ____.
4.88

Fill blank: measured protein stability index of the sequence DELVGLPFSSHTYSQASELPTDAV [FBXO34] is ____.
4.95

Fill blank: measured protein stability index of the sequence DTDKWIQKAPMTTVRGLHCMCTVG [KLHL13] is ____.
2.32

Fill blank: measured protein stability index of the sequence PNIRNMAPNSLSAPTMLHNSSGDF [TRAF3IP2] is ____.
4.16

Fill blank: measured protein stability index of the sequence GARPPPTPPASPPPSVLISKNEVG [KMT2E] is ____.
4.91

Fill blank: measured protein stability index of the sequence YRQWHAKIFVENLRRQKSLRLEWE [IQUB] is ____.
2.29

Fill blank: measured protein stability index of the sequence MPYISDKHPRQTLEVINLLRKHRE [KLHL20] is ____.
2.86

Fill blank: measured protein stability index of the sequence EDSDVEMVEDDSRKEMTAACTPRR [MLH1] is ____.
5.54

Fill blank: measured protein stability index of the sequence NVKMIVLICVIVFIIILFIVLFAT [VAMP8] is ____.
2.27

Fill blank: measured protein stability index of the sequence IQEAQSAWKDDFALNSMLRRRFRE [YJU2B] is ____.
3.53
